endpoint: melting point

CCOC(=O)C1=CC(CF)(CF)Oc2ccc([N+](=O)[O-])cc21 ... 96 to 98 °C

Query: Look up melting point of CC(C)C1C(=O)N(COC(=O)c2c(Cl)cccc2Cl)S(=O)(=O)N1C (stereo unspecified) and report it.
Result: 70 to 71.5 °C

Query: For the molecule "O=C1Nc2ccc([N+](=O)[O-])cc2C1(Br)Br" , report melting point.
Result: 205 °C

Query: Hello, please tell me recorded melting point for this one: "Cc1cc(-c2nc3cccnn3c2-c2ccnc(NC(=O)c3ccc(Cl)nc3)c2)ccc1F"
Result: 225 to 226 °C

Query: Quickly give me recorded melting point for "COc1cc(Nc2c(C#N)cnc3cc4cc(OCCn5nccn5)c(OC)cc4cc23)c(Cl)cc1Cl"
Result: 285 to 287 °C

Query: Identify melting point associated with the molecule CON=C(c1ccccc1)c1ccc2c(c1)C(C)(C)CCN2CCOc1ccc(CC(OCC(F)(F)F)C(=O)O)cc1 (stereo unspecified)
Result: 62 to 64 °C

* * *

Catalogue of compounds with associated melting point

CC(=O)Nc1cc2c(cc1[N+](=O)[O-])OCCCO2 ... 139 to 140 °C
CCc1cc(C)cc(CC)c1CO ... 71 to 72 °C
COc1ccc(C2=NN(C3CCN(Cc4ccncc4)CC3)C(=O)[C@@H]3CC=CC[C@H]23)cc1OC ... 196 to 197 °C
CCOc1ccc2nc(Sc3ccc([N+](=O)[O-])c(N)c3)sc2c1 ... 126 to 129 °C
Cc1ccc(C#N)c(NC(C)C)c1 ... 55 to 57 °C

Query: For CCC(C)OS(=O)(=O)c1ccc(C(=O)c2cc(Cl)ccc2Cl)cc1 (configuration not stated) , write its melting point.
Result: 73 to 74 °C

Query: Please report the measured melting point for NC1=NC2(O)c3ccc(Cl)cc3CC2(F)S1 (configuration not stated)
Result: 159 °C

Query: Name the recorded melting point of the compound listed here: "FC1(F)N=c2cc3c(cc2=N1)OC(Cl)O3"
Result: > 220 °C

Query: Please look at this compound and report its melting point: CC(=O)N1C(C(=O)NC2CCC(O)CC2)C(c2cccc(Cl)c2F)C2(C(=O)Nc3cc(Cl)ccc32)C1CC(C)(C)C (configuration not stated)
Result: 220 °C

Query: In one line, give reported melting point of the entry "CCCCc1nc2ncncc2n1Cc1ccc2oc(-c3ccccc3-c3nnn[nH]3)c(Br)c2c1" .
Result: 211 to 213 °C

Query: Quote melting point reported for CCCCCC(C)C(C)c1cc(O)c2c(c1)OC(C)(C)C1=C2CN(CC(=O)O)CC1 (configuration not stated) please.
Result: 192 to 195 °C

Query: Hello, please tell me recorded melting point for this one: "O=C=NC1(N=NC2(N=C=O)CCCCC2)CCCCC1"
Result: 38 to 40 °C

* * *

endpoint: melting point

Study these solved cases before continuing.
COC(=O)c1c(N)[nH]c2ccccc12 ... 136 °C
OCc1ccccc1-c1ccc2nc(-c3ccc(Cl)cc3)cn2c1 ... 164 to 166 °C
CN1Cc2c(C#CCO)ncn2-c2cccc(Cl)c2C1=O ... 250 to 252 °C
CCCCCCCCCCCc1nnc(CO)n1-c1ccccc1C(=O)c1ccccc1 ... 111 to 112 °C
COc1ccc(CCc2ccc(NC(=O)C(=O)c3cc(Cl)ccc3O)cc2)cc1OC ... 128 to 130 °C
COC(=O)C1=C(C)Nc2ccccc2SC1c1ccccc1 (centres undefined) ... 154 to 156 °C
CNC(=O)c1ccc(O[C@H]2CC[C@@H](NC(=O)Nc3ccc(OC(F)(F)F)cc3)CC2)cc1 ... 207 to 208 °C
ON=Cc1cc(Cl)ncc1Cl ... 173 to 174 °C
CCOC(=O)C=Cc1ccc(C=Cc2csc3ccccc23)s1 ... 99 to 100 °C
Cc1cc2c(cc1C)N(C)C(=O)c1cccnc1N2 ... 206 to 209 °C

Query: Give recorded melting point. "Cc1nn(-c2ccccn2)c2[nH]c3cccc(C(=O)O)c3c(=O)c12"
Result: 303 to 306 °C

Query: For the molecule "CNc1nc(S(=O)(=O)Nc2c(F)cccc2F)nn1-c1ccccc1" , report melting point.
Result: 180 to 181 °C

Query: Tell me melting point reported for "NC(=NO)c1ccccc1C(F)(F)F"
Result: 74 to 76 °C

Query: State its melting point: "CN1CCC(OC(=O)COC(=O)c2ccccc2Nc2ccnc3c(C(F)(F)F)cccc23)(c2ccccc2)CC1"
Result: 144 to 145 °C
